Data credit: PubChem BioAssay

- Assay remarks: blockers of RIG-like receptor reporter activation – cell-based, Sendai virus stimulus, luciferase, 10K MLSCN set, TLR/RLR signaling modifier project, primary screen (AID 602276);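 note: firefly luciferase from ISG56 promoter only with Renilla not read in this screen; 0% = Sendai virus plus DMSO and 100% = medium plus DMSO without virus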
- Test conditions: HEK293 RL24 IRF3 luciferase reporter, at 10 µM, stronger effect = higher value
Below is a list of entries, each paired with its recorded inhibition value.
Report the value in % with no unit label.

Past entries and their recorded results:
{"Compound": "CN(C)CCNC(=O)c1ccc(COCC(F)(F)F)cc1", "inhibition, %": 14.2}
{"Compound": "C=CCn1c(SC(C)C(=O)NC2(C#N)CCCCC2)nnc1-c1ccc(OC)cc1 (stereo unspecified)", "inhibition, %": 22.5}

Please fill in: inhibition reported for "Nc1nc(NCc2ccco2)nn1-c1ccccc1" = 7.08

Please fill in: inhibition reported for "CC(C)N(Cc1nc(-c2ccc(Cl)cc2)no1)C(=O)CN(C)S(=O)(=O)c1ccc(Cl)cc1" = 20.4

Please fill in: inhibition reported for Cc1ccc(C(=O)N2CCN(C(=O)c3ccc(C)c(C)c3)C(C)C2)cc1C (stereo unspecified) = 4.92

Please fill in: inhibition reported for "CCCCOC(=O)Cn1c(=O)oc2ccc(C)cc21" = -5.21

Please fill in: inhibition reported for "COc1cccc(NC(=O)c2ccco2)c1" = -31.2

Please fill in: inhibition reported for "COc1ccc(NC(=O)N(C2CCCCC2)C2CCN(C(C)C)CC2)c(OC)c1" = 2.2

Please fill in: inhibition reported for "Nn1cnnc1SCC(=O)Nc1ccc2c(c1)OCCO2" = 1.38

Please fill in: inhibition reported for "O=C(CSc1nnnn1-c1ccc2c(c1)OCO2)NCc1cccs1" = 33.3

Please fill in: inhibition reported for "NC(=O)C1CCN(C(=S)c2cccs2)CC1" = 19.1
